# tested.system: recombinant human mu (MOR) opioid receptor (Homo sapiens (Human), UniProt P35372)
# protocol.notes: Opioid receptor radioligand binding assay, MOR
pIC50: −log10 of the molar value. Square brackets hold non-standard residues; d marks the D form. Peptide text beside a SMILES is read from it. * marks the point of attachment. Piperidin1yl(4-NH2,4-CO2Me) = COC(=O)C1(N)CCN(*)CC1; Pyrrolidinyl(3-NH2,3-CO2Me) = COC(=O)C1(N)CCN(*)C1; Piperidin1yl(4-NH2,4-COOH) = NC1(C(=O)O)CCN(*)CC1; dTic = O=C(O)[C@H]1Cc2ccccc2CN1
assay.metric: pIC50

- compound: "COC(=O)C1(N)CCN(C(=O)CNC(=O)[C@@H](CCCCN)NC(=O)[C@@H](CC(C)C)NC(=O)[C@@H](Cc2ccccc2)NC(=O)[C@H](N)Cc2ccccc2)CC1 [Compound 66] (H-[dF][dF][dL][dK]G-{Piperidin1yl(4-NH2,4-CO2Me)})"
  relational.operator: "="
  measurement: 6.51
- compound: "CC(C)C[C@@H](NC(=O)[C@@H](Cc1ccccc1)NC(=O)[C@H](N)Cc1ccccc1)C(=O)N[C@H](CCCCN)C(=O)N1CCN(C(=O)NC2CC2)CC1"
  relational.operator: "<"
  measurement: 5.00
- compound: "CC(C)C[C@@H](NC(=O)[C@@H](Cc1ccccc1)NC(=O)[C@H](N)Cc1ccccc1)C(=O)N[C@H](CCCCN)C(=O)NCC(=O)N1CCC(N)(C(=O)O)CC1 [Compound 67] (H-[dF][dF][dL][dK]G-{Piperidin1yl(4-NH2,4-COOH)})"
  relational.operator: "="
  measurement: 5.29
- compound: "CCOC(=O)C1(N)CCN(C(=O)[C@@H](CCCCN)NC(=O)[C@@H](CC(C)C)NC(=O)[C@@H](Cc2ccccc2)NC(=O)[C@H](N)Cc2ccccc2)C1 (stereo partly drawn)"
  relational.operator: "="
  measurement: 5.09
- compound: "CC(C)C[C@@H](NC(=O)[C@@H](Cc1ccccc1)NC(=O)[C@H](N)Cc1ccccc1)C(=O)N[C@H](CCCCN)C(=O)NCc1cccnc1C(=O)O"
  relational.operator: "<"
  measurement: 5.00
- compound: "COC(=O)C1(N)CCN(C(=O)[C@@H](CCCCN)NC(=O)[C@@H](CC(C)C)NC(=O)[C@@H](Cc2ccccc2)NC(=O)[C@H]2Cc3ccccc3CN2)C1 (stereo partly drawn) [Compound 168] (H-[dTic][dF][dL][dK]-{Pyrrolidinyl(3-NH2,3-CO2Me)})"
  relational.operator: "="
  measurement: 5.62
- compound: "CNC(=O)C(=O)N1CCC(NC(=O)[C@@H](CCCCN)NC(=O)[C@@H](CC(C)C)NC(=O)[C@@H](Cc2ccccc2)NC(=O)[C@H](N)Cc2ccccc2)CC1"
  relational.operator: "="
  measurement: 5.15
- compound: "CC(C)C[C@@H](NC(=O)[C@@H](Cc1ccccc1)NC(=O)[C@H](N)Cc1ccccc1)C(=O)N[C@H](CCCCN)C(=O)N1CCC(NC(=O)/C=C\\C(=O)NC(N)=O)CC1"
  relational.operator: "="
  measurement: 5.82
- compound: "CC(C)C[C@@H](NC(=O)[C@@H](Cc1ccccc1)NC(=O)[C@H](N)Cc1ccccc1)C(=O)N[C@H](CCCCN)C(=O)NCc1ccncc1"
  relational.operator: "="
  measurement: 5.06
- compound: "CC(C)C[C@@H](NC(=O)[C@@H](Cc1ccccc1)NC(=O)[C@H](N)Cc1ccccc1)C(=O)N[C@H](CCCCN)C(=O)N1CCC(NC(=O)CNC(N)=O)CC1"
  relational.operator: "<"
  measurement: 5.00
- compound: "CC(C)C[C@@H](NC(=O)[C@@H](Cc1ccccc1)NC(=O)[C@H](N)Cc1ccccc1)C(=O)N[C@H](CCCCN)C(=O)N1CCC(N)(C(=O)OC2CC2)C1 (stereo partly drawn)"
  relational.operator: "<"
  measurement: 5.00
- compound: "CC(C)C[C@@H](NC(=O)[C@@H](Cc1ccccc1)NC(=O)[C@H](N)Cc1ccccc1)C(=O)N[C@H](CCCCN)C(=O)N1CCC(NC(=O)C[C@H](N)C(N)=O)CC1"
  relational.operator: "<"
  measurement: 5.00
